Where do the numbers come from? From patent US12637469B2.

target: B-Raf(h) (Homo sapiens); construct: purchased Eurofins (KinaseProfiler platform); test: Eurofins KinaseProfiler off-target kinase inhibition; format: biochemical
Sequence (P15056 whole entry): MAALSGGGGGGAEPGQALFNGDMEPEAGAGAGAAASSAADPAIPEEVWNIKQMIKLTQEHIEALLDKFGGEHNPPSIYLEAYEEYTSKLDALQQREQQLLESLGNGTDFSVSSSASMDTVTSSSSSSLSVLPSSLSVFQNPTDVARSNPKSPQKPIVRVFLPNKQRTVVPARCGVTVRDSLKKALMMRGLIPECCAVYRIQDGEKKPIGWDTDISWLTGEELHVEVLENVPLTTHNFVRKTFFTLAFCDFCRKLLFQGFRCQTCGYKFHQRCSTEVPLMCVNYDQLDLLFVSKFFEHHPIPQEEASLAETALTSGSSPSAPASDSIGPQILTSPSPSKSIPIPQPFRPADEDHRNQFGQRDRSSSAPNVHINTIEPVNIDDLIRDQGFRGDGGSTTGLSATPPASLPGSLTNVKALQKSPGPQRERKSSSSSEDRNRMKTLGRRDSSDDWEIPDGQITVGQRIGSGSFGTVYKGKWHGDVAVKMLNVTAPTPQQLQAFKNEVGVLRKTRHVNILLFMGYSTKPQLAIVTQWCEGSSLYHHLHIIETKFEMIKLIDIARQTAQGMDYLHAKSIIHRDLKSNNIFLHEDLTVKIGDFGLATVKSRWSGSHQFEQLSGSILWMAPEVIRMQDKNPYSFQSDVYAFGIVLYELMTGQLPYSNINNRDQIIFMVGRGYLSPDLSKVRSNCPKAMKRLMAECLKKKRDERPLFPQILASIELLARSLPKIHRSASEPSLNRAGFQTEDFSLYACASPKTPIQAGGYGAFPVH
endpoint: IC50 (nM)
The answer is to be given in nM; state only the numeric part.

query: Fill in: IC50 on B-Raf(h) (Homo sapiens), entry c1cn2c(n1)c(Nc1ccc(N3CCOCC3)cc1)nc1ccc(-c3cn[nH]c3)cc12 [Compound 1]
result: 91

---

experiment: Pharmacokinetic evaluation of ocular administration to mouse (cornea and plasma exposure); assay type: in vivo, C57BL/6 mice; conditions: C57BL/6, plasma, other: eye drops (ocular administration), eye drop, 0.1 mg/animal, 3 hours, read-out: Drug concentration in plasma
endpoint: concentration at 3 h (nM)
The answer is to be given in nM; state only the numeric part.

query: Report concentration at 3 h, nothing else, for this molecule: c1cn2c(n1)c(Nc1ccc(N3CCOCC3)cc1)nc1ccc(-c3cn[nH]c3)cc12
result: 6.8

---

molecular target: CYP2C9 (Homo sapiens); construct: human liver microsome working solution was prepared; from tissue; host or cells: human liver microsomes; assay: Inhibition of cytochrome P450 enzymes in human liver microsomes (LC-MS/MS); assay type: in vitro ADME
Sequence (P11712 whole entry): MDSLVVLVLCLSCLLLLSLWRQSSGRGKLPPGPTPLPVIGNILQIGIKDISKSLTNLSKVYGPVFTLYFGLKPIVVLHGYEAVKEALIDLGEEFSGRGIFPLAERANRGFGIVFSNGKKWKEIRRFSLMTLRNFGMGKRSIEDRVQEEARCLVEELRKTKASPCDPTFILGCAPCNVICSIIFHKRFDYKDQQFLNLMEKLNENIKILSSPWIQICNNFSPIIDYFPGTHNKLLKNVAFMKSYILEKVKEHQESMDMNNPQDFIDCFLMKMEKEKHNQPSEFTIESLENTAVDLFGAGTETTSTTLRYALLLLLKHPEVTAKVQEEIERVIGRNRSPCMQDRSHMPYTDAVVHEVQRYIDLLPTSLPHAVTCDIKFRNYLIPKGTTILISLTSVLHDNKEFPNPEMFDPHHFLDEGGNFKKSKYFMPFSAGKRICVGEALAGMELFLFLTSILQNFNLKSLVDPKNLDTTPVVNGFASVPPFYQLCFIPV
endpoint: IC50

query: Report IC50, nothing else, for this compound: c1cn2c(n1)c(Nc1ccc(N3CCOCC3)cc1)nc1ccc(-c3cn[nH]c3)cc12 [Compound 1]
result: > 50 nM

---

Target: IKKβ(h) (Homo sapiens, UniProt O14920)
Construct: purchased Eurofins (KinaseProfiler platform)
Sequence (O14920 1-756): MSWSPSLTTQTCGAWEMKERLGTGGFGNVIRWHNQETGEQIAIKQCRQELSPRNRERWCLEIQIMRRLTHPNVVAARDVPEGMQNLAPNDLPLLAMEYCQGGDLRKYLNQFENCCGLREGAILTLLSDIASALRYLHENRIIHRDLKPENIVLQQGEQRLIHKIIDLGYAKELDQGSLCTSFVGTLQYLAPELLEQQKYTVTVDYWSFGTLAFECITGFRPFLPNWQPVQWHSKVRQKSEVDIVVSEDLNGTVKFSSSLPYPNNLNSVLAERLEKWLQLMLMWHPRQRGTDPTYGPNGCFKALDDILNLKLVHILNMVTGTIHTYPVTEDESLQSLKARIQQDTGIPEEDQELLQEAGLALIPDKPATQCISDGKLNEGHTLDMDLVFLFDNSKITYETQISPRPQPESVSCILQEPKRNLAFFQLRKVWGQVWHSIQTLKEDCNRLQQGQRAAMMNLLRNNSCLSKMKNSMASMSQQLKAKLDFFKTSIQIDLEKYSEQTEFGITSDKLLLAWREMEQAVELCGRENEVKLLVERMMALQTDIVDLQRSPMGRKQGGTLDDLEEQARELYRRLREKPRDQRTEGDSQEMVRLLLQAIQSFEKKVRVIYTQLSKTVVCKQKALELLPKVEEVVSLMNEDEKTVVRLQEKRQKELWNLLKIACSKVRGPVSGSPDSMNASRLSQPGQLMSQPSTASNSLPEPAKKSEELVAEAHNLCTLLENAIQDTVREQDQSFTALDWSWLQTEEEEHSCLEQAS
Experiment: Eurofins KinaseProfiler off-target kinase inhibition
Type: biochemical
Experimental: In order to investigate the specificity of the inhibition of the target by the compound, in this study, the activity and selectivity of test compound 1 on the off-target kinases in related pathways were tested on the Eurofins kinaseProfiler™ platform, and compound screening and analysis were conducted using IC50 value as the indicator. Compound 1 was detected for each selected kinase using the standard Eurofins Kinase Profiler™ protocol, which followed the relevant standard operating procedures. […]
endpoint: IC50

query: Report IC50, nothing else, for this compound: c1cn2c(n1)c(Nc1ccc(N3CCOCC3)cc1)nc1ccc(-c3cn[nH]c3)cc12
result: > 10000 nM
